# Test system: MK cells (MK-lin)
# Run description: MLTA, MK: concentration-response and QSP model fit
# Format: cell-based, human
# Test parameters: Homo sapiens, 144 h; dose 0.2 nM, 6 days, normalized to vehicle control; read-out: MK normalized cell count
Give measured activity at 0.0002 µM for each item. Keep answers brief.
Answers are plain numbers, in %.

### Prompt What value of activity at 0.0002 µM has been recorded for this entry: CC(=O)O[C@@]12CO[C@@H]1C[C@H](O)[C@@]1(C)C(=O)[C@H](O)C3=C(C)[C@@H](OC(=O)[C@H](O)[C@@H](NC(=O)OC(C)(C)C)c4ccccc4)C[C@@](O)([C@@H](OC(=O)c4ccccc4)[C@H]21)C3(C)C
### Response 94.7

I would be grateful if you could provide activity at 0.0002 µM for each of the following entries.
1. CCN1CCN(Cc2ccc(Nc3ncc(F)c(-c4cc(F)c5nc(C)n(C(C)C)c5c4)n3)nc2)CC1
2. CS(=O)(=O)N1CCN(Cc2cc3nc(-c4cccc5[nH]ncc45)nc(N4CCOCC4)c3s2)CC1

### Response
1. 108
2. 100
